Source: ChEMBL document CHEMBL5338817

Target: CREB-binding protein (Homo sapiens, UniProt Q92793)
Sequence (Q92793 whole entry): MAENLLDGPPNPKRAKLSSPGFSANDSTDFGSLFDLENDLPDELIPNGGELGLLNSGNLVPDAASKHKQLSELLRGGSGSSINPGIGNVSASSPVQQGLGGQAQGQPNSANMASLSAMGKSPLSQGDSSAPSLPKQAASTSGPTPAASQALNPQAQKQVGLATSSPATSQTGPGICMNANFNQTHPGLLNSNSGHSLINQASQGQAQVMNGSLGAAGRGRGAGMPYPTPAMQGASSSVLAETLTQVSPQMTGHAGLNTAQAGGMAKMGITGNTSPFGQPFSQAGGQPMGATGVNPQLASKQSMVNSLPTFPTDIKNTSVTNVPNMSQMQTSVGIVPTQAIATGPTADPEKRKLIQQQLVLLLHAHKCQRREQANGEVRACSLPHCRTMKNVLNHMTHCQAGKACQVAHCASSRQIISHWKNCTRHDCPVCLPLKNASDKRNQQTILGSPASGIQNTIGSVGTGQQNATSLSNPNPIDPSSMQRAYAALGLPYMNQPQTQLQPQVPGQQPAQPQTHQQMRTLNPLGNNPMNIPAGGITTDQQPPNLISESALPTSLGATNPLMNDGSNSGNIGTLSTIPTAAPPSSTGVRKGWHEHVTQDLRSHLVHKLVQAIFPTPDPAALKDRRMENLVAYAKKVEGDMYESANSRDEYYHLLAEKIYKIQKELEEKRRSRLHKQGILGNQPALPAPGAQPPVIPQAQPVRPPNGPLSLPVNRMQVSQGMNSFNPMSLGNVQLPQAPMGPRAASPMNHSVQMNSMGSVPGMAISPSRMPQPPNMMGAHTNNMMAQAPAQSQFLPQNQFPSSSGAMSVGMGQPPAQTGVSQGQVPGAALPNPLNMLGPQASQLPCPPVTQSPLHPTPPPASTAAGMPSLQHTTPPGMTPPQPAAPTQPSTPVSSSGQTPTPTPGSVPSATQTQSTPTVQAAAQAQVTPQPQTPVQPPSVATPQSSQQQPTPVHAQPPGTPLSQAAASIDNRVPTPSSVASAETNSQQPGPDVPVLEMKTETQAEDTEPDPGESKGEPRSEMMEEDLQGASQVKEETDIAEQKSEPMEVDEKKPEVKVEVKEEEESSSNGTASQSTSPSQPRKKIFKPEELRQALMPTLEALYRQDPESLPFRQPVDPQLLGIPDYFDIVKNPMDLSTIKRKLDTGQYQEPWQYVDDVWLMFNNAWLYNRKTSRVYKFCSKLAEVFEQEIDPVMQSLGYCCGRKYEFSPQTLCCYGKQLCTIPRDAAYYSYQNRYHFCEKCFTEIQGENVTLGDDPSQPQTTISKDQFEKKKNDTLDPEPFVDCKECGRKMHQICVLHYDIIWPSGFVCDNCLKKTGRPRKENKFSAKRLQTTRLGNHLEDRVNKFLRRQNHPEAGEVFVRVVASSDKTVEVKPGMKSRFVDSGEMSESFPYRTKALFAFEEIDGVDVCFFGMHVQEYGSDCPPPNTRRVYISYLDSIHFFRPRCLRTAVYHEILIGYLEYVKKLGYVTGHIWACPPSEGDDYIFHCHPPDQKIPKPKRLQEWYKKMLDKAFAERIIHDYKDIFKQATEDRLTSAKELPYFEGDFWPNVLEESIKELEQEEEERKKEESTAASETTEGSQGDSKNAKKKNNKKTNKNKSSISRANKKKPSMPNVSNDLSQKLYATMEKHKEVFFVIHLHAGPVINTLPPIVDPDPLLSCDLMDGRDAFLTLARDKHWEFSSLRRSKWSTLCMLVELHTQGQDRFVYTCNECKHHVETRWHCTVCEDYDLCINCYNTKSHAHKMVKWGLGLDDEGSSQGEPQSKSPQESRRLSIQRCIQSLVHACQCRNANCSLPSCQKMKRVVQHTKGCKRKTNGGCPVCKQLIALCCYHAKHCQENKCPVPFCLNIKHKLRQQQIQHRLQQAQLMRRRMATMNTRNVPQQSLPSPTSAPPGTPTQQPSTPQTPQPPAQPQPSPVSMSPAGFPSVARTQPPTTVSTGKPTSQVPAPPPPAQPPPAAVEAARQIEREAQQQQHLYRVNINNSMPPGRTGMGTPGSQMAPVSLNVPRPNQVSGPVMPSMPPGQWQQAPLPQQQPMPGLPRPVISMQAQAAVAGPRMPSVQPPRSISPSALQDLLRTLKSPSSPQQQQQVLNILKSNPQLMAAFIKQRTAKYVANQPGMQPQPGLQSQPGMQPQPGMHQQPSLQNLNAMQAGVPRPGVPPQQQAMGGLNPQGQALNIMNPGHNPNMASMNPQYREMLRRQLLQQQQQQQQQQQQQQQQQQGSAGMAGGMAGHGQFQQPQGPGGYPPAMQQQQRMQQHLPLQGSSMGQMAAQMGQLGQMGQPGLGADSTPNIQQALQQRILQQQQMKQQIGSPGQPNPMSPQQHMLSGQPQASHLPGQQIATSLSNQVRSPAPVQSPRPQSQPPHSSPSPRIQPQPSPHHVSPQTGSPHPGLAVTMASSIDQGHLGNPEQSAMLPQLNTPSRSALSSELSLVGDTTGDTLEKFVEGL
Experiment: Induction of CBP degradation in human RS4-11 cells incubated for 4 hrs by Western blot assay
EC50: recorded values
The response must be a number in nM with no trailing unit.

Would you please look over these solved cases?
Compound	EC50 [nM]
CC(=O)N1CCc2c(c(-c3cccc4cc(-c5ccc(C(=O)NCCCCCCCNc6cccc7c6C(=O)N(C6CCC(=O)NC6=O)C7=O)nc5)ncc34)nn2C2CCOCC2)C1 (stereo not given)	12
CC(=O)N1CCc2c(c(-c3cccc4cc(-c5ccc(C(=O)N6CC7(CC(Nc8cccc9c8C(=O)N(C8CCC(=O)NC8=O)C9=O)C7)C6)nc5)ncc34)nn2C2CCOCC2)C1 (stereo not given)	0.3
CC(=O)N1CCc2c(c(-c3cccc4cc(-c5ccc(C(=O)NCCNc6ccc7c(c6)CN(C6CCC(=O)NC6=O)C7=O)nc5)ncc34)nn2C2CCOCC2)C1 (stereo not given)	1.1
CC(=O)N1CCc2c(c(-c3cccc4cc(-c5ccc(C(=O)NCCCCNc6cccc7c6C(=O)N(C6CCC(=O)NC6=O)C7=O)nc5)ncc34)nn2C2CCOCC2)C1 (stereo not given)	1.3

[in] Reported EC50, compound CC(=O)N1CCc2c(c(-c3cccc4cc(-c5ccc(C(=O)NCCCCCc6cccc7c6CN(C6CCC(=O)NC6=O)C7=O)nc5)ncc34)nn2C2CCOCC2)C1 (stereo not given) : ____
[out] 0.2

---

pEC50: recorded values
Target: CREB-binding protein (Homo sapiens)
Experiment: Induction of CBP degradation in human RS4-11 cells incubated for 4 hrs by Western blot assay
Just the number, please; pEC50 means minus log10 of the concentration in mol/L.

Would you please look over these solved cases?
Compound	Measure name	Value observed
CC(=O)N1CCc2c(c(-c3cccc4cc(-c5ccc(C(=O)NCCNc6cccc7c6C(=O)N(C6CCC(=O)NC6=O)C7=O)nc5)ncc34)nn2C2CCOCC2)C1 (stereo unspecified)	pEC50	8.77
CC(=O)N1CCc2c(c(-c3cccc4cc(-c5ccc(C(=O)NCCNc6cccc7c6CN(C6CCC(=O)NC6=O)C7=O)nc5)ncc34)nn2C2CCOCC2)C1 (stereo unspecified)	pEC50	9.22
CC(=O)N1CCc2c(c(-c3cccc4cc(-c5ccc(C(=O)NCCCCCCNc6cccc7c6C(=O)N(C6CCC(=O)NC6=O)C7=O)nc5)ncc34)nn2C2CCOCC2)C1 (stereo unspecified)	pEC50	9.22
CC(=O)N1CCc2c(c(-c3cccc4cc(-c5ccc(C(=O)N6CCC(Nc7cccc8c7C(=O)N(C7CCC(=O)NC7=O)C8=O)CC6)nc5)ncc34)nn2C2CCOCC2)C1 (stereo unspecified)	pEC50	8.74

Note: attention shifts to another entry.
[in] Reported pEC50, compound CC(=O)N1CCc2c(c(-c3cccc4cc(-c5ccc(C(=O)NCCCCCCCCNc6cccc7c6C(=O)N(C6CCC(=O)NC6=O)C7=O)nc5)ncc34)nn2C2CCOCC2)C1 (stereo unspecified) : ____
[out] 9.70

---

Biological target: Histone acetyltransferase p300 (Homo sapiens, UniProt Q09472)
Sequence (Q09472 whole entry): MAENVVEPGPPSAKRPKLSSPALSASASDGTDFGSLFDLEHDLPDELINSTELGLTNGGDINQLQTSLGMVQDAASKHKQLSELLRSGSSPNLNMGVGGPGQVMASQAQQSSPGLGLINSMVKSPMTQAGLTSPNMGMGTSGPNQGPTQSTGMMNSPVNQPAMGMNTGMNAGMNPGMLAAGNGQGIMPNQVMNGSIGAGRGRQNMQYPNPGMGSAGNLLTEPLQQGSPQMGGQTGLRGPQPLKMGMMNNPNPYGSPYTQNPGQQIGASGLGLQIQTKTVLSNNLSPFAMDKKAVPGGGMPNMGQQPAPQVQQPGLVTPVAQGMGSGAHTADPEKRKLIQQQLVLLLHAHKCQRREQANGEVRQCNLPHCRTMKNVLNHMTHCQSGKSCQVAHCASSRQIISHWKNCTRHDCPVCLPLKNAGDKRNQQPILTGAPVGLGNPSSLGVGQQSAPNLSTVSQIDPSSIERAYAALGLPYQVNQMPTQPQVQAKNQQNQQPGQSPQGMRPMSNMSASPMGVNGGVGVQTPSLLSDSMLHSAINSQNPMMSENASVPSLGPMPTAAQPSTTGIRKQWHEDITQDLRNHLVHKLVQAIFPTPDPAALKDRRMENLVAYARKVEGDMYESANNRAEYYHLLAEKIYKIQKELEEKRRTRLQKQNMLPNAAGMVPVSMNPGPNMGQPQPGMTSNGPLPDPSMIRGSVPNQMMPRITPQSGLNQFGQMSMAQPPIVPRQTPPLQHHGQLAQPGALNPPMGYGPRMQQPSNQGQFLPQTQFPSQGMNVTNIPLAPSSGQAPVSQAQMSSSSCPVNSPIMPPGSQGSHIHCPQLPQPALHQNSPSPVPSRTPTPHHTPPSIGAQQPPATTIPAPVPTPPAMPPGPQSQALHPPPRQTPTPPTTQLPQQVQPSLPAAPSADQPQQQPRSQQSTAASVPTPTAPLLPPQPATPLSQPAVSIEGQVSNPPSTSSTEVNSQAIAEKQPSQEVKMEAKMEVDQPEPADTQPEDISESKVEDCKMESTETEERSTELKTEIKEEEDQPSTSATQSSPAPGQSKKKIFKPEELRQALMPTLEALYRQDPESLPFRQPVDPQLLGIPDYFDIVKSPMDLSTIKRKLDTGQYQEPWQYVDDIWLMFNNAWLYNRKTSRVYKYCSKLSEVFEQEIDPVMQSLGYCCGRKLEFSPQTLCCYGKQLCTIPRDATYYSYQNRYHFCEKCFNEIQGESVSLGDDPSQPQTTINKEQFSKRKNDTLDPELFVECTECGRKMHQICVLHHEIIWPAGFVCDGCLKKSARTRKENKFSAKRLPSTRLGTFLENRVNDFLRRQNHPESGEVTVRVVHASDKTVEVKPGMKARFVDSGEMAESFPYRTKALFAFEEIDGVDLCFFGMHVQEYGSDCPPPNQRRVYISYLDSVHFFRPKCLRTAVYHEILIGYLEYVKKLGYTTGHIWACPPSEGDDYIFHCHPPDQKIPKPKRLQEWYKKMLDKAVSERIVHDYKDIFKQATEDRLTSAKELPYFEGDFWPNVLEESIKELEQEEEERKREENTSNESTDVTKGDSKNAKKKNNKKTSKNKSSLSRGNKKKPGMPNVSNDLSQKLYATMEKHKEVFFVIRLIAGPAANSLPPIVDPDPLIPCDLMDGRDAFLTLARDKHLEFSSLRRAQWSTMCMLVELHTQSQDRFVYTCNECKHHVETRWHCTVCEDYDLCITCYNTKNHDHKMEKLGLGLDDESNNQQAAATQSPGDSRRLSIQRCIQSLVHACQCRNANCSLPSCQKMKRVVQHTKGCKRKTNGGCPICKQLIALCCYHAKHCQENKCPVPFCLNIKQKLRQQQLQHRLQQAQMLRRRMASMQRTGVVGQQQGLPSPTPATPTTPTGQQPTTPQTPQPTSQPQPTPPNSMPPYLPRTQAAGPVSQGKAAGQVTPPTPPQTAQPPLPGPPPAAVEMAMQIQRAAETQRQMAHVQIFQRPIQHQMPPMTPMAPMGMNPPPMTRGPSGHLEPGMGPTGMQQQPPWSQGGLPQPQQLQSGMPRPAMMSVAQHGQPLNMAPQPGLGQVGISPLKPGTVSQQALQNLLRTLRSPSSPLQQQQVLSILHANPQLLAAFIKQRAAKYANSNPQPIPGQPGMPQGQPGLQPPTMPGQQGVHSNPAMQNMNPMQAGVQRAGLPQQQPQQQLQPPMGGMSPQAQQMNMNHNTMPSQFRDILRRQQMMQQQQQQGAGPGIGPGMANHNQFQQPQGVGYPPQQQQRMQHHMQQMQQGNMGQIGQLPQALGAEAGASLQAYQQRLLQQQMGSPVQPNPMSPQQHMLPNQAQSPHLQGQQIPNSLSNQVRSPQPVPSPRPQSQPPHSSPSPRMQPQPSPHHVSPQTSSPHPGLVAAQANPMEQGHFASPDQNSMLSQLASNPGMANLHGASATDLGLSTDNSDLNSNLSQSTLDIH
Assay: Induction of p300 degradation in human RS4-11 cells incubated for 4 hrs by Western blot assay
Assay type: cell-based
Conditions: rs4-11
Measure name: DC50 (nM)
The response must be a number in nM with no trailing unit.

Would you please look over these solved cases?
Compound	DC50 / nM
CC(=O)N1CCc2c(c(-c3cccc4cc(-c5ccc(C(=O)NCCCNc6ccc7c(c6)CN(C6CCC(=O)NC6=O)C7=O)nc5)ncc34)nn2C2CCOCC2)C1 (configuration not stated)	0.3
CC(=O)N1CCc2c(c(-c3cccc4cc(-c5ccc(C(=O)NCCNc6ccc7c(c6)CN(C6CCC(=O)NC6=O)C7=O)nc5)ncc34)nn2C2CCOCC2)C1 (configuration not stated)	5.1
CC(=O)N1CCc2c(c(-c3cccc4cc(-c5ccc(C(=O)NCCNc6cccc7c6CN(C6CCC(=O)NC6=O)C7=O)nc5)ncc34)nn2C2CCOCC2)C1 (configuration not stated)	1.8
CC(=O)N1CCc2c(c(-c3cccc4cc(-c5ccc(C(=O)NCCCc6cccc7c6CN(C6CCC(=O)NC6=O)C7=O)nc5)ncc34)nn2C2CCOCC2)C1 (configuration not stated)	0.3
CC(=O)N1CCc2c(c(-c3cccc4cc(-c5ccc(C(=O)NCCCNc6cccc7c6CN(C6CCC(=O)NC6=O)C7=O)nc5)ncc34)nn2C2CCOCC2)C1 (configuration not stated)	1.8

Note: attention shifts to another entry.
[in] Reported DC50, compound CC(=O)N1CCc2c(c(-c3cccc4cc(-c5ccc(C(=O)NCCCCCc6cccc7c6CN(C6CCC(=O)NC6=O)C7=O)nc5)ncc34)nn2C2CCOCC2)C1 (configuration not stated) : ____
[out] 0.1
